# Test system: SF-295 CNS
# protocol: NCI-60 one-dose screen, 48 h (100 = growth as untreated, 0 = no growth, -100 = all killed)
# experimentalSetup: 10 µM unless noted
This is part of a sample that, as a whole, favours compounds with a hit. Of some 83,000 tested, about 20% had one in any assay. Activity calls are given as the source filed them. Rule for the calls: active = growth percent below 10; inactive = the rest.
testReadout: growth

Please tell me: growth of O=C(/C=C/c1ccc(Cl)cc1)c1ccc(Nc2ccnc3cc(Cl)ccc23)cc1 , system SF-295 CNS?
9.54% (active)

Please tell me: growth of COC(=O)c1cc(-c2ccc(OC)c(OC)c2)[nH]c1N/N=C/c1c(Cl)cccc1Cl , system SF-295 CNS?
-0.264% (active)

Please tell me: growth of Nc1n[nH]c2cccc(C#Cc3cccc(C(=O)Nc4ccc(Cl)c(C(F)(F)F)c4)c3)c12 , system SF-295 CNS?
66.6% (inactive)

Please tell me: growth of Cc1ccc(C(=O)Nc2ccc(CN3CCN(C)CC3)c(C(F)(F)F)c2)cc1C#Cc1cnc(N)c2ccccc12 , system SF-295 CNS?
-35.9% (active)

Please tell me: growth of CCNc1nc(-c2ccc(Cl)c(OC)c2)c(-c2ccnc(NCCNS(=O)(=O)c3ccc(Cl)cc3)n2)s1 , system SF-295 CNS?
17.2% (inactive)

Please tell me: growth of CN(Cc1ccccc1)c1nc(Cl)c(C2CC(c3ccc(Cl)cc3)=NN2c2cc(Cl)cc(Cl)c2)s1 (centres undefined) , system SF-295 CNS?
95.3% (inactive)

Please tell me: growth of COc1cc(/C=N/NC(=O)c2ccc3nc(-c4ccc(Cl)cc4)[nH]c3c2)cc(OC)c1OC , system SF-295 CNS?
44% (inactive)

Please tell me: growth of Cc1c(-c2cnc3ccc(Cl)cc3c2C(=O)O)nnn1-c1ccc(Cl)cc1 , system SF-295 CNS?
97.7% (inactive)

Please tell me: growth of Cc1nc2cccc(NCc3ccc(C(=O)NO)cc3)c2c(=O)n1-c1ccccc1 , system SF-295 CNS?
16% (inactive)

----------
# Tested on: MCF7 breast
# protocol: NCI-60 one-dose screen, 48 h (100 = growth as untreated, 0 = no growth, -100 = all killed)
# experimentalSetup: 10 µM unless noted
Compounds without any hit were thinned out: in the full panel of roughly 83,000, 20% have a hit.
The class of a record is decided solely by its measured growth; consult LOW (below 20%), MID (20% to below 70%), HIGH (70% or more)

Each compound maps to one class by growth. Which class for O=C1CC2C=CCN2C=C1NC(=O)c1ccccc1 (stereo unspecified) ?
HIGH

Each compound maps to one class by growth. Which class for CCN1C(=O)N(CC)C2C1NN=c1s/c(=C3\C(=O)N(C)c4ccccc43)c(=O)n12 (stereo unspecified) ?
MID

Each compound maps to one class by growth. Which class for Oc1c(Cl)cc(Cl)c2ccc(CN3CCNCC3)nc12 ?
MID

Each compound maps to one class by growth. Which class for CC(C)=CCC[C@](C)(O)C1CC[C@]2(C)[C@@H]1CC[C@@H]1[C@@]3(C)CC/C(=N\OCCC#N)C(C)(C)[C@@H]3CC[C@]12C (stereo partly specified) ?
MID

Each compound maps to one class by growth. Which class for COc1cccc(C2C(C#N)=C(N)Oc3c2ccc2ccccc32)c1 (stereo unspecified) ?
LOW

Each compound maps to one class by growth. Which class for CCCCN(CCC#N)C(N)=O ?
HIGH

Each compound maps to one class by growth. Which class for COc1ccc(-c2cn(Cc3ccc4c(Br)cc(Br)c(O)c4n3)nn2)cc1 ?
MID

Each compound maps to one class by growth. Which class for Nc1ncc(-c2ccc3ncnc(N4CCc5cc(F)c(Cl)cc54)c3c2)cc1C(F)(F)F ?
LOW

Each compound maps to one class by growth. Which class for CC(=O)c1ccc(Nc2nccc(-c3ccc(Cl)cc3)n2)cc1 ?
HIGH

Each compound maps to one class by growth. Which class for C#Cc1cccc(Nc2nc(Cl)nc3cc(NC(=O)CCl)ccc23)c1 ?
LOW
